Test system: NCI/ADR-RES
Test Name: Reversal fold, ratio of doxorubicin IC50 to doxorubicin IC50 in presence of test compound for reversal of P-gp mediated multidrug resistance in doxorubicin resistant human MCF-7/ADR cells incubated for 48 hrs by CCK-8 assay; note: test concentration or dose not given here
Type: functional
Measure Name: Ratio IC50
Enter the number alone.

Answered cases to consult:
>>> quantitative_result("O=C(NCc1ccccn1)c1cccc([Se]c2c[nH]c3ccc(C(=O)Nc4ccc(F)cc4)cc23)c1")
2.7
>>> quantitative_result("COc1ccc(-c2ccc(C(=O)N3CCc4cc(OC)c(OC)cc4C3)o2)cc1")
23.7
>>> quantitative_result("COc1ccc(NC(=O)c2ccc3[nH]cc([Se]c4cccc(C(=O)N5CCc6cc(OC)c(OC)cc6C5)c4)c3c2)cc1")
9.1
>>> quantitative_result("COc1ccc(CNC(=O)c2cccc([Se]c3c[nH]c4ncccc34)c2)cc1OC")
4
>>> quantitative_result("CNC(=O)c1ccc2[nH]cc([Se]c3cccc(C(=O)N4CCc5cc(OC)c(OC)cc5C4)c3)c2c1")
5.1
>>> quantitative_result("O=C(NCc1ccccn1)c1ccc([Se]c2c[nH]c3ccccc23)cc1")
1.65

-- ask For the compound O=C(NCc1ccccn1)c1cccc([Se]c2c[nH]c3ccc(F)cc23)c1 , give its measured Ratio IC50 value.
-- reply 2.7
